# pIC50 against UniProt:P36888, merged from multiple literature sources
On this scale, pIC50 is minus log10 of a concentration expressed in M (mol/L).

COc1cccc(NC(=O)NCc2ccc(Oc3ncnc4cc(OC)c(OC)cc34)cc2)c1    8.10
COc1ccc(S(=O)(=O)Nc2cccc(-c3cc(NC(=O)c4ccc(N5CCN(C)CC5)cc4)[nH]n3)c2)cc1    7.05
CC(C)n1cc(-c2ccc(NC(=O)Nc3cc(C(C)(C)C)on3)cc2)c2c(N)ncnc21    7.70

Look up UniProt:P36888 data: pIC50 of "Cc1sc2ncnc(Nc3c[nH]nc3C(=O)Nc3ccc(CN4CCOCC4)cc3)c2c1C" , then report it.
8.45

---

pIC50: −log10 of the molar value.
# pIC50 against Receptor-type tyrosine-protein kinase FLT3 (Homo sapiens, UniProt P36888), merged from multiple literature sources
Think of 7 as a floor: if pIC50 stands on it or above, it is 1 (yes); beneath it, 0 (no).

Cc1oncc1C(=O)Nc1ccc2[nH]c(-c3cnn(-c4ccccc4)c3C(F)(F)F)nc2c1    0 (no)
CCOC(=O)Cc1csc2nc(-c3cccs3)nc(NN3C(=O)C=C(C)C3=O)c12    0 (no)
COc1ccc(/C=C/C(=O)Nc2sc3c(c2C(N)=O)CCCC3)cc1    0 (no)

Identify whether the reported pIC50 of the following compound is 7 or greater: CC1(C)CCCC(n2c3cnccc3c3cnc(Nc4ccc(N5CCNCC5)cn4)nc32)C1 (stereo not drawn)
1 (yes)

Identify whether the reported pIC50 of the following compound is 7 or greater: "O=C(Nc1ccc(N2CCOCC2)cc1C(F)(F)F)c1cnn2ccc(NC3CCCCC3)nc12"
0 (no)

Identify whether the reported pIC50 of the following compound is 7 or greater: "COc1cc2ncnc(Nc3cnn(CC(=O)Nc4ccc(N(C)C)cn4)c3)c2cc1OC"
1 (yes)

Identify whether the reported pIC50 of the following compound is 7 or greater: "O=C(Nc1ccc(N2CCNCC2)cc1)c1n[nH]cc1Nc1cc(C2CCCC2)ncn1"
1 (yes)

Identify whether the reported pIC50 of the following compound is 7 or greater: "CNc1ncc2c(-c3ccc(N4CCNCC4)cc3)nn(Cc3cn(Cc4ccccc4)nn3)c2n1"
0 (no)

Identify whether the reported pIC50 of the following compound is 7 or greater: "Cc1c(NC(=O)CCNC(C)(C)C)c[nH]c1/C=C1\C(=O)Nc2ccc(F)cc21"
1 (yes)

---

# pIC50 against Receptor-type tyrosine-protein kinase FLT3 (Homo sapiens, UniProt P36888), merged from multiple literature sources
- targetSystem: Receptor-type tyrosine-protein kinase FLT3 (Homo sapiens, UniProt P36888)
- Sequence (P36888 whole entry): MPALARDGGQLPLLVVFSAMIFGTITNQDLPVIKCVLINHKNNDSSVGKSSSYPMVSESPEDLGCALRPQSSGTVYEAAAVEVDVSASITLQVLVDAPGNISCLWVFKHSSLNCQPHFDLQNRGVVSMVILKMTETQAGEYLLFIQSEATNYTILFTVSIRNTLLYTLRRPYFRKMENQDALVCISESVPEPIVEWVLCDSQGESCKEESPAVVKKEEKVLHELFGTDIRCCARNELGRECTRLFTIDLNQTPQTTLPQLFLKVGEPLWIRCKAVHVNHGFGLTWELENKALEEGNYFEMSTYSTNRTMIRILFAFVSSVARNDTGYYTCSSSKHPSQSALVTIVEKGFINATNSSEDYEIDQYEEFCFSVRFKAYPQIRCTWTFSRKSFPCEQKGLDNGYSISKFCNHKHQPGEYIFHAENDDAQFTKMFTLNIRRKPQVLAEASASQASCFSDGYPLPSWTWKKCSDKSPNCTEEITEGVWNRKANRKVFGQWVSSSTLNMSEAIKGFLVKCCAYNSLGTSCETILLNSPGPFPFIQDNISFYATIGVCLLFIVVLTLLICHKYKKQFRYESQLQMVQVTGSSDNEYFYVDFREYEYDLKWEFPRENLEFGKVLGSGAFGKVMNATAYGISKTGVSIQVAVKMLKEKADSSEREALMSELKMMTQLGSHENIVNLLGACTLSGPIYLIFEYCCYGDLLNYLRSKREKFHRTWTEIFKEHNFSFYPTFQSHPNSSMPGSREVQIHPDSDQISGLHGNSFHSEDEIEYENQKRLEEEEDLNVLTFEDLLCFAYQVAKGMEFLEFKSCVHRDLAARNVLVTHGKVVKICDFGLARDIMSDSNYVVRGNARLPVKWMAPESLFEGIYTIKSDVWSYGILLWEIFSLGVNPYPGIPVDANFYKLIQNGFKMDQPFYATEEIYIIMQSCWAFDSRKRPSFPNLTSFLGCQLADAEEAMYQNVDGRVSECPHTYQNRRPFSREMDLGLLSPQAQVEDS
On this scale, pIC50 is minus log10 of a concentration expressed in M (mol/L).

O=C(Nc1ccc(N2CCOCC2)cc1C(F)(F)F)c1cnn2ccc(N[C@@H]3CCCCNC3)nc12    9.10
Cc1ccc(F)c(NC(=O)Nc2ccc(-c3ccc(F)c4onc(N)c34)cc2)c1    6.76

Look up Receptor-type tyrosine-protein kinase FLT3 (Homo sapiens, UniProt P36888) data: pIC50 of "COc1ccc2c(c1)[C@@]1(C[C@@H]1c1ccc3c(-c4ccc(N5CCN(C)CC5)nc4)n[nH]c3c1)C(=O)N2" , then report it.
5.19

---

- targetSystem: Receptor-type tyrosine-protein kinase FLT3 (Homo sapiens)
- Sequence (P36888 whole entry): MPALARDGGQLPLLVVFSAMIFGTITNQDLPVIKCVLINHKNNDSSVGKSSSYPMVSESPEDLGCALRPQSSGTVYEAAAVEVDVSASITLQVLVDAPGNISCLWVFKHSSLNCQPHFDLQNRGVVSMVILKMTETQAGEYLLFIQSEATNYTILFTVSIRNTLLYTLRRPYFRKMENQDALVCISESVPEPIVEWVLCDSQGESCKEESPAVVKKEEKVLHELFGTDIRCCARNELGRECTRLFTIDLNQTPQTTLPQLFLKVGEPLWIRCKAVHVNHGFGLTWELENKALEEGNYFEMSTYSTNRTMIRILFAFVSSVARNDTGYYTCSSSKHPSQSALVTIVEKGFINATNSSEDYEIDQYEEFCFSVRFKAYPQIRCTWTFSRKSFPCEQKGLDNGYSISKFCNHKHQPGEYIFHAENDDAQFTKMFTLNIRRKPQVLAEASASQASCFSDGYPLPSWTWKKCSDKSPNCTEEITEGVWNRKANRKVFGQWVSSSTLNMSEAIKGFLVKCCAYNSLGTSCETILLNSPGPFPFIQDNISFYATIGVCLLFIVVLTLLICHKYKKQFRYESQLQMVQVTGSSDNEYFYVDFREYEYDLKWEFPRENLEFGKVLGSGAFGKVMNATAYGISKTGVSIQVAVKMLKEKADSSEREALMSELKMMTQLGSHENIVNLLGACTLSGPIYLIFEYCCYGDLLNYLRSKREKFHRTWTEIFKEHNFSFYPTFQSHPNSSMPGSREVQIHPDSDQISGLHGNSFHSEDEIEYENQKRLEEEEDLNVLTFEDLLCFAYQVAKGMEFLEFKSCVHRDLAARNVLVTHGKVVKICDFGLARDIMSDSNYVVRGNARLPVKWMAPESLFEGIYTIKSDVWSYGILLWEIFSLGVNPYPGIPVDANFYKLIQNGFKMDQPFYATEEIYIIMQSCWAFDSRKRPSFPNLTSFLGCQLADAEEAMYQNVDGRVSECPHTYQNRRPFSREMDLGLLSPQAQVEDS
# pIC50 against Receptor-type tyrosine-protein kinase FLT3 (Homo sapiens), merged from multiple literature sources
On this scale, pIC50 is minus log10 of a concentration expressed in M (mol/L).

Fc1ccc(-n2nncc2-c2ccncc2)cc1    5.85
CC#CCn1cc(-c2ccc(NC(=O)Nc3cc(C(C)(C)C)on3)cc2)c2c(N)ncnc21    7.59

Look up Receptor-type tyrosine-protein kinase FLT3 (Homo sapiens) data: pIC50 of "O=C1Nc2ccc([N+](=O)[O-])cc2/C1=C1/Nc2ccc(O)cc2/C1=N\OCCBr" , then report it.
6.49

Look up Receptor-type tyrosine-protein kinase FLT3 (Homo sapiens) data: pIC50 of "Cc1c(NC(=O)CCN2CCCCC2)c[nH]c1/C=C1\C(=O)Nc2ccc(F)cc21" , then report it.
8.89

---

# pIC50 against Receptor-type tyrosine-protein kinase FLT3 (Homo sapiens), merged from multiple literature sources
- targetSystem: Receptor-type tyrosine-protein kinase FLT3 (Homo sapiens)
- Sequence (P36888 whole entry): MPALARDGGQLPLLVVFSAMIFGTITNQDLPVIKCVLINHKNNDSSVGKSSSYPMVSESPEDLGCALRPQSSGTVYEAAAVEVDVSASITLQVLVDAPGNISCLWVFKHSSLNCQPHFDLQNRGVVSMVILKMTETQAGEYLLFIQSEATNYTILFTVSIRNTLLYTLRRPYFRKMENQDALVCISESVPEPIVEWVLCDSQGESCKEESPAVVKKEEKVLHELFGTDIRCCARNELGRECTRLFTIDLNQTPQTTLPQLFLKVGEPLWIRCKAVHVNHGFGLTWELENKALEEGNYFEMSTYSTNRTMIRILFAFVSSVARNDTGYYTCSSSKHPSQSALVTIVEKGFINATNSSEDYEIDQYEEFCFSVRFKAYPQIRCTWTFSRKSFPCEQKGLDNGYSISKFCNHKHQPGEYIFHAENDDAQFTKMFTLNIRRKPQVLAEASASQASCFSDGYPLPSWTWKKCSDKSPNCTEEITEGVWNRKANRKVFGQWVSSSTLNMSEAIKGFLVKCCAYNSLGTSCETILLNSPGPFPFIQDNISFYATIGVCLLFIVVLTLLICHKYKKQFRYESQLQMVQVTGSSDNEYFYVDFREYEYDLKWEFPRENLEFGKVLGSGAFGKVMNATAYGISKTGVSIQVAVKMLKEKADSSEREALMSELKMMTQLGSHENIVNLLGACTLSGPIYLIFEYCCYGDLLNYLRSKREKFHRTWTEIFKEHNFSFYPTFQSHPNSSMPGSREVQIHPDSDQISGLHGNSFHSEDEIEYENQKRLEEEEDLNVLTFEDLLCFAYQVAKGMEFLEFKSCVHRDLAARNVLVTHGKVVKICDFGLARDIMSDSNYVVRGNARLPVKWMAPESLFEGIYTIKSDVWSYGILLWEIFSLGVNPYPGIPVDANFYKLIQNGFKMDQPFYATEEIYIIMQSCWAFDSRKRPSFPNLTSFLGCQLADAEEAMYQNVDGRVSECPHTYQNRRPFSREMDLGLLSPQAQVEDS
On this scale, pIC50 is minus log10 of a concentration expressed in M (mol/L).

O=C(Nc1ccc(N2CCOCC2)cc1)c1cnn2ccc(N[C@@H]3CCCNC3)nc12    7.42

Specify reported pIC50 for the molecule shown: "O=C(Nc1ccc(N2CCOCC2)cc1C(F)(F)F)c1cnn2ccc(NC3CNC3)nc12"
7.40

Specify reported pIC50 for the molecule shown: "CN(C)CCn1cc(-c2ccc(NC(=O)Nc3cc(C(C)(C)C)on3)cc2)c2c(N)ncnc21"
7.77

Specify reported pIC50 for the molecule shown: c1cc(-c2cnnn2C2C3CC4CC(C3)CC2C4)ccn1 (centres undefined)
5.32

Specify reported pIC50 for the molecule shown: "O=C(Nc1ccc2c(c1)CNc1cnc(Cl)nc1O2)Nc1ccc(Cl)c(C(F)(F)F)c1"
6.05
